- EXPERIMENTAL TARGET: recombinant human αvβ6 integrin (human) (UniProt P06756)
- TEST: ELISA; competitive integrin binding assay: αvβ6-coated plates, isoDGR peptide labeled with peroxidase as probe for the integrin-binding site; Ki
Ends that are not written are not given here.
MEASUREMENT KIND: Ki

IN: What measured Ki goes with C(maleimide‑NOTA)FETLRGEERILSILRHQNLLKELQD-NH2 [2a-NOTA conjugate] ?
OUT: > 1000 nM
